system: CP215; assay: qHTS profiling for inhibitors of Plasmodium falciparum proliferation (AID 504749); further: nearly all actives have a fitted effect of over 60% in size; details: P. falciparum in erythrocytes, SYBR Green DNA, 72 h; series mostly up to 28.7 µM
Records with an inconclusive call do not appear. Activity calls are given as the source filed them. The call rests on the fitted dose curve; in most records, active means well fitted inhibition curve with a large enough effect; inconclusive means small, poorly fitted or top-dose-only effect; inactive means flat fitted curve, though single readings scatter.
Select the correct class. Options are active, inactive and nothing else.

Worked examples, 5 compounds total:
O=[N+]([O-])c1ccc([As](=O)(O)O)cc1
active
Cc1ccc(Cl)c(O)c1
inactive
O=C(O)COc1ccccc1
inactive
CC[N+]1(CCOC(=O)C(O)(c2ccccc2)c2ccccc2)CCCCC1
inactive
C#CC1(O)CCC2C3CCC4=CC(=O)CCC4(C)C3CCC21C (configuration not stated)
inactive

# fetch the recorded call for "CCCN1CCC[C@H](c2cccc(O)c2)C1" here
inactive

Give the logged outcome of this assay for the following compound: "COC(=O)[C@@H](N)CCCN=C(N)N[N+](=O)[O-]"
inactive

For "C[C@]12CCC(=O)C(O)=C1CC[C@@H]1[C@H]3CCC(=O)[C@@]3(C)CC[C@@H]12" , which call appears in the assay record?
inactive

Check the results log: what was the call for "CC(=O)[O][Hg][c]1ccccc1" ?
active

Which outcome was assigned to "Cc1cc(O)ccc1Cl" in this test?
inactive

Give the logged outcome of this assay for the following compound: NC(=O)CN1CC(O)CC1=O (configuration not stated)
inactive

Name the outcome recorded for C=CCN1CC[C@]23CCCCC2[C@H]1Cc1ccc(O)cc13 (some centres not stated) in the assay.
inactive

* * *

target: Nucleoprotein (Lymphocytic choriomeningitis virus (strain Armstrong)); assay: qHTS for Inhibitors of the Functional Ribonucleoprotein Complex (vRNP) of Lymphocytic Choriomeningitis Arenaviruses (LCMV): LCMV Primary Screen - GLuc reporter signal (AID 1347086); settings: LCMV minigenome vRNP cell assay, Gaussia luciferase reporter; series mostly up to 57.5 µM; further: nearly all actives have a fitted effect of over 70% in size
Records with an inconclusive call do not appear. Active and inactive are the calls of the source. The call rests on the fitted dose curve.
Respond only with the outcome that fits, drawn from Y = active, N = inactive

O=C(O)CCC1CCC(c2cc(F)ccc2F)(S(=O)(=O)c2ccc(Cl)cc2)CC1 (configuration not stated)
N

What outcome does the record of this test show for O=C1C(CCC(O)c2ccc(F)cc2)C(c2ccc(O)cc2)N1c1ccc(F)cc1 (configuration not stated) ?
N

Called result for "O=[N+]([O-])c1cccc(S(=O)(=O)NCCNS(=O)(=O)c2cccc([N+](=O)[O-])c2)c1"
N

Status in this test for "Cc1cc(C=c2sc3nc4ccccc4n3c2=O)c(C)n1-c1ccccc1" ?
N

Called result for C[C@@H](N)C1CCC(C(=O)Nc2ccncc2)CC1 (some centres not stated)
Y

Status in this test for "O=C(Nc1ccc(OC(F)(F)F)cc1)c1sccc1NCc1ccnc2ccccc12" ?
N

Could you kindly confirm the outcome this assay logged for "Nc1ccc([N+](=O)[O-])cc1O" ?
N

Recorded test call requested for "CC(C)[C@H](CO)Nc1nc(Nc2ccc(C(=O)O)c(Cl)c2)c2ncn(C(C)C)c2n1"
N

Could you kindly confirm the outcome this assay logged for "CCCCN1CCC(CNC(=O)c2c3n(c4ccccc24)CCCO3)CC1" ?
Y

Dear all, I need the recorded test outcome for "C=CC(=O)NCNC(=O)C=C" , thank you.
N

Returns: the outcome recorded for "Cc1cccc(C#Cc2ccccc2)n1" in this assay.
N

Please state the recorded outcome for this compound: "NC(CO)(CO)CCc1ccc(Sc2cccc(OCc3ccccc3)c2)cc1Cl"
N

* * *

test: Quantitative High-Throughput drug screen in 47 multiple myeloma cell lines against the NCATS MIPE library collection: OCIMY7_PLB cell viability assay (AID 1918987); details: OCI-MY7 myeloma viability, CellTiter-Glo ATP, 48 h; series mostly up to 45.8 µM; further: nearly all actives have a fitted effect of over 65% in size
Inconclusive results are not listed. The source made the active and inactive calls. The call rests on the fitted dose curve; in most records, active means well fitted cell-killing curve with a large enough effect; inconclusive means small, poorly fitted or top-dose-only effect, or effect the other way; inactive means no such curve, though single readings can be large or run the other way.
Return exactly one item of y = active, n = inactive

These solved cases illustrate the format of a correct answer.
NC1CC1c1ccccc1 (stereo unspecified)
n
CCN1CCN(C(=O)Cc2ccc(Nc3ncc(F)c(Nc4ccc(C(=O)Nc5ccccc5Cl)cc4)n3)cc2)CC1
y
CC(C)(O)C(=O)Nc1ccc([N+](=O)[O-])c(C(F)(F)F)c1
y
N=c1c2c(-c3ccccc3)c(-c3ccccc3)n(Cc3ccccc3)c2ncn1C1CCC(O)CC1 (stereo unspecified)
y
COC1=C[C@@H]2[C@@H]3Cc4ccc(OC)c(O)c4[C@]2(CCN3C)CC1=O
y

Now turn to the next compound.
Dear colleague, could you share the recorded outcome for O=S(=O)(CC1CS1)c1ccc(Oc2ccccc2)cc1 (stereo unspecified) when you have a moment?
y

* * *

assay: qHTS of pediatric cancer cell lines to identify multiple opportunities for drug repurposing: Confirmatory screen for U-2 OS cells (AID 1347122); settings: U-2 OS osteosarcoma cell viability; series mostly up to 45.9 µM; further: nearly all actives have a fitted effect of over 65% in size
Inconclusive results are not listed. Active and inactive are the calls of the source. The call rests on the fitted dose curve; in most records, active means well fitted cell-killing curve with a large enough effect; inconclusive means small, poorly fitted or top-dose-only effect; inactive means no such curve, though single readings can be large or run the other way.
Choose the fitting class; nothing outside active, inactive is accepted.

Here are 3 compounds together with their reported answers.
CCC(=O)OC1CCC2C3CCC4=CC(=O)CC[C@@]4(C)C3CC[C@]12C (stereo partly drawn)
inactive
CS(=O)(=O)c1ccc(C(=O)C2C(=O)CCCC2=O)c([N+](=O)[O-])c1
inactive
C[C@H]1CCCC=CC2C[C@H](O)C[C@@H]2[C@H](O)C=CC(=O)O1 (stereo partly drawn)
active

Now consider a different compound.
Dear all, I need the recorded test outcome for "O=c1[nH]c2ccc(Cl)cc2c(N[C@@H]2CN3CCC2CC3)c1-c1nc2ccccc2[nH]1" , thank you.
active

* * *

Provide the reported parasite growth, % of control (lower = inhibition) of each item.
experiment: qHTS profiling of the MIPE4 collection as inhibitors of Plasmodium falciparum (DD2) proliferation (Rep 2) (AID 743346); settings: P. falciparum Dd2 in erythrocytes, SYBR Green DNA, 72 h; at 28.5 µM (top of the series)
Answers are plain numbers, in %.

Nc1nc(-c2nn(Cc3ccccc3F)c3ncccc23)nc(N)c1N1CCOCC1
60.8
CC[C@H](CO)Nc1nc(NCc2ccccc2)c2ncn(C(C)C)c2n1
48
CC(=O)N(C)c1cccc(-c2ccnc3c(C(=O)c4cccs4)cnn23)c1
51.9
CCNC(=O)C[C@@H]1N=C(c2ccc(Cl)cc2)c2cc(OC)ccc2-n2c(C)nnc21
99.1

Entry C=C[C@@H]1CN2CCC1C[C@@H]2[C@@H](O)c1ccnc2ccccc12 (stereo not given in full) has what parasite growth, % of control (lower = inhibition)?
45.8

* * *

assay: qHTS assay to identify small molecule inhibitors of chordoma cells - UCH-1 (AID 1259355); settings: UCH-1 chordoma viability, CellTiter-Glo, 48 h, combination; series mostly up to 46.1 µM; further: nearly all actives have a fitted effect of over 55% in size
Results filed as inconclusive are left out. Active and inactive are the calls of the source. The call rests on the fitted dose curve; in most records, active means well fitted cell-killing curve with a large enough effect; inconclusive means small, poorly fitted or top-dose-only effect, or effect the other way; inactive means no such curve, though single readings can be large or run the other way.
Thanks in advance; please answer with one of these: active, inactive

# example entries with known answers
CCCCCCCCCC(CC)c1ccc(S(=O)(=O)O)cc1 (stereo not drawn)
inactive
C[C@]12CCC(=O)C(O)=C1CC[C@@H]1[C@H]3CCC(=O)[C@@]3(C)CC[C@@H]12
inactive
Cc1cc(O)ccc1Cl
inactive
O=C1C(I)=CC(=C(c2cc(I)c(O)c(I)c2)c2ccccc2C(=O)O)C=C1I
inactive
Cc1ccc(Cl)c(O)c1
inactive

Hi, do you know how "CC[N+]1(CCOC(=O)C(O)(c2ccccc2)c2ccccc2)CCCCC1" came out in this test?
inactive

// return assay outcome for "C[C@]12N[C@H](Cc3ccccc31)c1ccccc12"
inactive

Tell me the assay call for "O=[N+]([O-])c1ccc([As](=O)(O)O)cc1" please.
inactive

// return assay outcome for COC(=O)c1cncn1C(C)c1ccccc1 (stereo not drawn)
inactive

Please state the recorded outcome for this compound: "O=C(O)COc1ccccc1"
inactive

Please let me know the test result on file for "O=C(O)C(Cl)Cl" .
inactive

What classification did "CC(=O)[O][Hg][c]1ccccc1" end up with in this test?
active

// param item: COC(C)(C)CCCC(C)C/C=C/C(C)=C/C(=O)OC(C)C (stereo not drawn) ; yields the recorded call
inactive

* * *

test: qHTS of pediatric cancer cell lines to identify multiple opportunities for drug repurposing: Confirmatory screen for MG 63 (6-TG R) cells (AID 1347119); conditions: MG-63 (6-TG resistant) osteosarcoma viability; series mostly up to 45.9 µM; further: nearly all actives have a fitted effect of over 55% in size
Records with an inconclusive call do not appear. The source made the active and inactive calls. Calls follow the shape of the dose curve; as a rule, active = well fitted cell-killing curve with a large enough effect; inconclusive = small, poorly fitted or top-dose-only effect, or effect the other way; inactive = no such curve, though single readings can be large or run the other way.
Respond only with the outcome that fits, drawn from active, inactive

Use these answered entries as a reference point.
CS(=O)(=O)c1ccc(C(=O)C2C(=O)CCCC2=O)c([N+](=O)[O-])c1
inactive
CC(=Cc1csc(C)n1)[C@@H]1C[C@H]2O[C@]2(C)CCC[C@H](C)[C@@H](O)[C@@H](C)C(=O)C(C)(C)[C@@H](O)CC(=O)O1
active
CC(C)[C@]12O[C@@H]1[C@@H]1O[C@]13[C@]1(O[C@H]1C[C@@H]1C4=C(CC[C@@]13C)C(=O)OC4)[C@H]2O
active

Kindly review the next compound as well.
// return assay outcome for CCC(=O)OC1CCC2C3CCC4=CC(=O)CC[C@@]4(C)C3CC[C@]12C (some centres undefined)
inactive
